Entry source: the RNAGym collection of RNA variant scans (doi:10.7554/elife.80360)

Provide the recorded self-cleavage for the entries that follow.
B1: HDV Ribozyme (parent)
chain: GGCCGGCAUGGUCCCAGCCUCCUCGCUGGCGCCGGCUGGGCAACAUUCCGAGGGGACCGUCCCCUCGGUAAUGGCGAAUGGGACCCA

- Variants of: B1
- test protocol: self-cleavage, relative activity (ratio to wild type); higher = more cleavage; co-transcriptional
Number only, no unit.

## Task Would you kindly share the measured self-cleavage for C7A C41A ?
## Result 0.342

## Task Give the measured self-cleavage of U23G U72A .
## Result 0.341

## Task # query: self-cleavage of entry G17U C21U
## Result 0.13

## Task So what does the record say about self-cleavage for U27C G39A ?
## Result 0.175

## Task Fill in: self-cleavage of G34U G40A is ___
## Result 0.0542

## Task Any idea what self-cleavage was measured for G1A C4A ?
## Result 0.166

## Task Fill in: self-cleavage of U79C A87U is ___
## Result 0.373

## Task # get_value(readout='self-cleavage', item= G10A U37G )
## Result 0.198

## Task # query: self-cleavage of entry A70U A83C
## Result 0.458

## Task Fill in: self-cleavage of C21G G38A is ___
## Result 0.0339

## Task For G38U G54U , what is its reported self-cleavage?
## Result 0.325
